experiment: Cytotoxicity against BALB/c mouse splenocytes at 10 ug/ml by MTT assay; format: cell-based; conditions: splenocyte
Rule: Activity under 8% gives N, otherwise Y.

A selection of reference data follows.
>>> label_value("CCCCCCCCCCCCCCC(COCc1ccccc1)N(CC)CC (stereo unspecified)")
"Y"
>>> label_value("CCCCCCCCCCCCCCC(CO)NC(=O)CCCC(=O)O (stereo unspecified)")
"Y"

*Q* Does Activity meet or surpass 8% for CCCCCCCCCCCCCCC(NC(=O)OC(C)(C)C)C(=O)O (stereo unspecified) ?
*A* N

*Q* Answer whether Activity of CCCCCCCCCCCCCCC(CN)NC(=O)OC(C)(C)C (stereo unspecified) is greater than or equal to 8%.
*A* N

*Q* Activity >= 8% for CCCCCCCCCCCCCCC(N)COCc1ccccc1 (stereo unspecified) ?
*A* Y

---

assay: Cytotoxicity against BALB/c mouse splenocytes at 1 ug/ml by MTT assay; format: cell-based; conditions: splenocyte
A collection of molecules and their measured Activity
Your answer should be a plain number; it is taken to be in %.

>>> endpoint_value("CCCCCCCCCCCCCCC(CN)NC(=O)OC(C)(C)C (stereo not given)")
4.2
>>> endpoint_value("CCCCCCCCCCCCCCC(COCc1ccccc1)N(CC)CC (stereo not given)")
14.1
>>> endpoint_value("CCCCCCCCCCCCCCC(CO)N(CC)CC (stereo not given)")
7.5
>>> endpoint_value("CCCCCCCCCCCCCCC(COCc1ccccc1)NC(=O)CCCC(=O)O (stereo not given)")
0

*Q* Return reported Activity. Input molecule: CCCCCCCCCCCCCCC(CO)NCC (stereo not given)
*A* 10.5

---

experiment: Cytotoxicity against BALB/c mouse splenocytes at 1 ug/ml by MTT assay; assay type: cell-based; settings: splenocyte
Cut-off 6% on Activity: below means T, at or above means F.

Examples from the recorded data:
>>> label_value("CCCCCCCCCCCCCCC(N)CO (configuration not stated)")
"F"
>>> label_value("CCCCCCCCCCCCCCC(N)COCc1ccccc1 (configuration not stated)")
"T"
>>> label_value("CCCCCCCCCCCCCCC(CO)NCCCCCC (configuration not stated)")
"T"
>>> label_value("CCCCCCCCCCCCCCC(CO)NCCCCCCCCCC (configuration not stated)")
"F"
>>> label_value("CCCCCCCCCCCCCCC(CNC(=O)CCCC(=O)O)NC(=O)OC(C)(C)C (configuration not stated)")
"T"
>>> label_value("CCCCCCCCCCCCCCC(N)CN(CC)CC (configuration not stated)")
"T"

*Q* Hello, I'm reviewing records and need to know if Activity of CCCCCCCCCCCCCCC(CN(CC)CC)NC(=O)OC(C)(C)C (configuration not stated) is below 6%. Could you check?
*A* F

---

Let's look at some molecules and their measured Activity.
test: Cytotoxicity against BALB/c mouse splenocytes at 10 ug/ml by MTT assay; type: cell-based; conditions: splenocyte
Provide the reading as a plain figure in %.

>>> endpoint_value("CCCCCCCCCCCCCCC(CO)NCCCCCCCCCC (stereo not drawn)")
12.6

*Q* Tell us which Activity value is on record for CCCCCCCCCCCCCCC(COCc1ccccc1)NC(=O)CCCC(=O)OC (stereo not drawn)
*A* 2.5

*Q* Give the value of Activity reported for the following: CCCCCCCCCCCCCCC(CO)NC(=O)CCCC(=O)OC (stereo not drawn)
*A* 18.9

*Q* Supply Activity value. Item: CCCCCCCCCCCCCCC(CO)NCCCC (stereo not drawn)
*A* 16.4

*Q* Entry CCCCCCCCCCCCCCC(COCc1ccccc1)NCC (stereo not drawn) needs its Activity filled in; supply it.
*A* 11.9

*Q* // fetch Activity given entry CCCCCCCCCCCCCCC(N)CNC(=O)CCCC(=O)O (stereo not drawn)
*A* 12.8

*Q* Read the entry CCCCCCCCCCCCCCC(CO)NCC (stereo not drawn) and write its reported Activity.
*A* 17.1

*Q* Output Activity of CCCCCCCCCCCCCCC(CO)NCCCCCC (stereo not drawn)
*A* 14.6

*Q* Fill in reported Activity for this entry: CCCCCCCCCCCCCCC(CO)N(CC)CC (stereo not drawn)
*A* 12.8

*Q* Retrieve Activity measured for CCCCCCCCCCCCCCC(N)CN(CC)CC (stereo not drawn) and print it.
*A* 24.2

*Q* Return Activity for the following molecule: CCCCCCCCCCCCCCC(C(=O)O)N(CCCC)CCCC (stereo not drawn)
*A* 12.5

*Q* Identify measured Activity associated with CCCCCCCCCCCCCCC(N)CN (stereo not drawn)
*A* 2.5

*Q* Return Activity (reported value) for this molecule: CCCCCCCCCCCCCCC(CO)N(CCCC)CCCC (stereo not drawn)
*A* 11.7

---

assay: Inhibition of concanavalin A-stimulated lymphoproliferation in BALB/c mouse splenocytes at 1 ug/ml by MTT assay; type: functional; details: Splenocyte
Parameter threshold = 70%. Response is satisfied when inhibition at 1 µg/mL meets or exceeds it, else not satisfied.

Solved cases (8 shown):
>>> label_value("CCCCCCCCCCCCCCC(CN)NC(=O)OC(C)(C)C (configuration not stated)")
"satisfied"
>>> label_value("CCCCCCCCCCCCCCC(CNC(=O)CCCC(=O)O)NC(=O)OC(C)(C)C (configuration not stated)")
"not satisfied"
>>> label_value("CCCCCCCCCCCCCCC(CO)NCCCCCCCCCC (configuration not stated)")
"not satisfied"
>>> label_value("CCCCCCCCCCCCCCC(N)COCc1ccccc1 (configuration not stated)")
"not satisfied"
>>> label_value("CCCCCCCCCCCCCCC(CN(CC)CC)NC(=O)OC(C)(C)C (configuration not stated)")
"not satisfied"
>>> label_value("CCCCCCCCCCCCCCC(CO)N(CC)CC (configuration not stated)")
"satisfied"
>>> label_value("CCCCCCCCCCCCCCC(CO)NCCCCCC (configuration not stated)")
"satisfied"
>>> label_value("CCCCCCCCCCCCCCC(COCc1ccccc1)NC(=O)CCCC(=O)O (configuration not stated)")
"not satisfied"

Then this molecule:
*Q* State whether the measured inhibition at 1 µg/mL reaches 70%, counting equality as reaching it, for CCCCCCCCCCCCCCC(N)CN(CC)CC (configuration not stated)
*A* satisfied

---

test: Cytotoxicity against BALB/c mouse splenocytes at 10 ug/ml by MTT assay; assay type: cell-based; conditions: splenocyte
Activity for assorted molecules
Give your result as the value with the unit written after it.

As a guide, the following entries are already answered.
>>> endpoint_value("CCCCCCCCCCCCCCC(NCCCC)C(=O)O (stereo not given)")
"5.1%"
>>> endpoint_value("CCCCCCCCCCCCCCC(COCc1ccccc1)NC(=O)CCCC(=O)O (stereo not given)")
"6.4%"
>>> endpoint_value("CCCCCCCCCCCCCCC(CNC(=O)CCCC(=O)O)NC(=O)OC(C)(C)C (stereo not given)")
"1.2%"
>>> endpoint_value("CCCCCCCCCCCCCCC(C(=O)O)N(CC)CC (stereo not given)")
"12.1%"

*Q* Note Activity for the molecule shown: CCCCCCCCCCCCCCC(N)CO (stereo not given)
*A* 20.2%

---

assay: Inhibition of concanavalin A-stimulated lymphoproliferation in BALB/c mouse splenocytes at 1 ug/ml by MTT assay; type: functional; settings: Splenocyte
Readings of inhibition at 1 µg/mL for the listed compounds
Please make sure the unit comes right after the number.

>>> endpoint_value("CCCCCCCCCCCCCCC(CO)NCC (stereo not drawn)")
"68.4%"
>>> endpoint_value("CCCCCCCCCCCCCCC(COCc1ccccc1)N(CC)CC (stereo not drawn)")
"71.6%"

The record that follows has no inhibition at 1 µg/mL shown yet.
*Q* Find the measured inhibition at 1 µg/mL of CCCCCCCCCCCCCCC(N)CO (stereo not drawn) and report it.
*A* 68.7%
